- Test system: Botryococcus braunii UTEX 572
- ASSAY EXPLANATION: Different fixed carbon sources on heterotrophic growth, visual score
- Format: cell-based
- Design: key: Growth was scored with +'s by visual examination of the cultures; ++: Growth was scored with +'s by visual examination of the cultures; +++: Growth was scored with +'s by visual examination of the cultures; ++++: Growth was scored with +'s by visual examination of the cultures; +++++: Growth was scored with +'s by visual examination of the cultures
- SETTINGS: UTEX 572, 0.1% carbon source in 1 ml BG11, dark, 4 weeks

>  <COMPOUND>
O=C[C@H](O)[C@@H](O)[C@H](O)[C@H](O)CO [glucose]

>  <heterotrophic growth score, 0.1%>
+++

$$$$
>  <COMPOUND>
O=C[C@@H](O)[C@H](O)[C@H](O)CO [arabinose]

>  <heterotrophic growth score, 0.1%>
+

$$$$
>  <COMPOUND>
O=C(CO)[C@@H](O)[C@H](O)[C@H](O)CO [fructose]

>  <heterotrophic growth score, 0.1%>
++

$$$$
>  <COMPOUND>
OCC(O)CO [glycerol]

>  <heterotrophic growth score, 0.1%>
+

$$$$
>  <COMPOUND>
O=C[C@H](O)[C@@H](O)[C@@H](O)[C@H](O)CO [galactose]

>  <heterotrophic growth score, 0.1%>
++

$$$$
>  <COMPOUND>
CC(=O)[O-].[Na+] [acetate, sodium acetate]

>  <heterotrophic growth score, 0.1%>
+

$$$$
